B1: EPB41L3 (parent)
chain: SDYISEFRFAPNHTKELEDKVIEL

- Variants of: B1
- assay remarks: protein stability index of a GFP-peptide fusion (GPS, HEK-293T) (PSI 1-6); higher = more stable;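 note: lentivirally expressed fusions sorted by FACS into six bins by GFP to DsRed ratio, PSI derived from sequencing read proportions per bin multiplied by bin number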
- test context: c terminus: a fixed tail appended
# protein stability index values compiled below

variant SDYISEFRFAPNHTKELEKKVIEL [D19K] , protein stability index observed: 1.89

variant SDYISEFRFAPNHTKELEDKVIWL [E23W] , protein stability index observed: 1.46

variant SDYISEFRNAPNHTKELEDKVIEL [F9N] , protein stability index observed: 4.59

variant SDYISEFRYAPNHTKELEDKVIEL [F9Y] , protein stability index observed: 2.25

variant SQYISEFRFAPNHTKELEDKVIEL [D2Q] , protein stability index observed: 1.62

variant SDYESEFRFAPNHTKELEDKVIEL [I4E] , protein stability index observed: 3.92

Data origin: the supplement of paper PMC10567573
